Tested on: Lolium perenne (LOLPE)
Assay: Test Example 1 pre-emergence herbicidal activity
Assay type: in vivo
Details: Lolium perenne, 480 h, rate 250 g/ha, evaluated 20 days later, read-out: Pre-emergence activity LOLPE (100=total damage to plant; 0=no damage to plant)
Reported pest or weed control at 250 g/ha values are given for each entry in this list.
Value Kind: pest or weed control at 250 g/ha

Molecule | Recorded Measurement
CCc1cc(C)cc(CC)c1C1=C(O)[C@@H]2[C@@H]3O[C@@H](C[C@H]3c3ccc(C)c(Cl)c3)[C@@H]2C1=O | 60%
C=C[C@@H]1C[C@@H]2O[C@H]1[C@H]1C(O)=C(c3c(C)cc(C)cc3C)C(=O)[C@H]12 (racemic) | 100%
CCc1cc(C)cc(CC)c1C1=C(O)[C@@H]2[C@@H]3O[C@@H](C[C@H]3c3cc(F)cc(F)c3)[C@@H]2C1=O | 100%

---

Reported pest or weed control at 250 g/ha values are given for each entry in this list.
System: Echinochloa crus-galli (ECHCG)
Assay: Test Example 1 pre-emergence herbicidal activity
Format: in vivo
Details: Echinochloa crus-galli, 480 h, rate 250 g/ha, evaluated 20 days later, read-out: Pre-emergence activity ECHCG (100=total damage to plant; 0=no damage to plant)

Molecule | Unit Of Measurement | pest or weed control at 250 g/ha
CCOC[C@]12CC[C@H](O1)[C@@H]1C(=O)C(c3c(CC)cc(C)cc3CC)=C(O)[C@@H]12 [Example T18] | % | 100
CCc1cc(C)cc(CC)c1C1=C(O)[C@@H]2[C@@H]3O[C@@H](C[C@H]3c3ccc(F)cc3F)[C@@H]2C1=O [Example T163] | % | 80
CCc1cc(C)cc(CC)c1C1=C(O)[C@@H]2[C@@H]3O[C@@H](C[C@H]3c3cc(F)ccc3C)[C@@H]2C1=O [Example T147] | % | 90
CCCCC[C@]12C=C[C@H](O1)[C@@H]1C(=O)C(c3c(C)cc(C)cc3C)=C(O)[C@@H]12 (racemic) [Example T42] | % | 30
CCCNC(=O)OC[C@]12CC[C@H](O1)[C@@H]1C(=O)C(c3c(CC)cc(C)cc3CC)=C(O)[C@@H]12 [Example T21] | % | 80
CCc1cc(C)cc(CC)c1C1=C(O)[C@H]2[C@@H](C1=O)[C@@H]1C=C[C@@]2(CO)O1 (racemic) [Example T13] | % | 100

---

Test system: Lolium perenne (LOLPE)
Test: Test Example 1 pre-emergence herbicidal activity
Type: in vivo
Details: Lolium perenne, 480 h, rate 250 g/ha, evaluated 20 days later, read-out: Pre-emergence activity LOLPE (100=total damage to plant; 0=no damage to plant)
Reported pest or weed control at 250 g/ha values are given for each entry in this list.
Value Kind: pest or weed control at 250 g/ha (%)

Molecule | Experimental System | Value Kind | Recorded Measurement
Cc1cc(C)c(C2=C(O)[C@@H]3[C@@H]4O[C@@H](C[C@H]4c4cnccn4)[C@@H]3C2=O)c(C)c1 | Lolium perenne (LOLPE) | pest or weed control at 250 g/ha | 60
CCc1cc(C)cc(CC)c1C1=C(O)[C@@H]2[C@@H]3O[C@@H](C[C@H]3c3ccc([N+](=O)[O-])cc3)[C@@H]2C1=O | Lolium perenne (LOLPE) | pest or weed control at 250 g/ha | 70
Cc1cc(C)c(C2=C(O)[C@@H]3[C@@H]4O[C@@H]([C@H](Br)[C@H]4Br)[C@@H]3C2=O)c(C)c1 | Lolium perenne (LOLPE) | pest or weed control at 250 g/ha | 30
CC1=C2CCC(C)C[C@@]23O[C@@H]1C1C(=O)C(c2c(C)cc(C)cc2C)=C(O)C13 (stereo partly drawn) | Lolium perenne (LOLPE) | pest or weed control at 250 g/ha | 10
Cc1cc(C)c(C2=C(O)[C@@H]3[C@@H]4O[C@@H](C[C@H]4c4ccc(C(F)(F)F)cc4)[C@@H]3C2=O)c(C)c1 | Lolium perenne (LOLPE) | pest or weed control at 250 g/ha | 30
Cc1cc(C)c(C2=C(O)[C@H]3[C@@H](C2=O)[C@@H]2CC[C@@]3(C)O2)c(C)c1 (racemic) | Lolium perenne (LOLPE) | pest or weed control at 250 g/ha | 100

---

System: Lolium perenne (LOLPE)
Experiment: Test Example 1 pre-emergence herbicidal activity
Assay type: in vivo
Conditions: Lolium perenne, 480 h, rate 250 g/ha, evaluated 20 days later, read-out: Pre-emergence activity LOLPE (100=total damage to plant; 0=no damage to plant)
Reported pest or weed control at 250 g/ha values are given for each entry in this list.

Compound | pest or weed control at 250 g/ha
Cc1cc(C)c(C2=C(O)[C@@H]3[C@@H]4O[C@@H](C[C@H]4c4ccc(C#N)cc4)[C@@H]3C2=O)c(C)c1 [Example T93] | 20%
CCc1cc(C)cc(CC)c1C1=C(O)[C@@H]2[C@@H]3O[C@@H](C[C@H]3c3cccc(C#N)c3)[C@@H]2C1=O [Example T182] | 40%
Cc1cc(C)c(C2=C(O)[C@@H]3[C@@H]4O[C@@H](C[C@H]4c4ccc(F)nc4)[C@@H]3C2=O)c(C)c1 [Example T129] | 90%
Cc1cc(C)c(C2=C(O)[C@@H]3[C@@H]4O[C@@H](C[C@H]4c4ccc(C(F)(F)F)cn4)[C@@H]3C2=O)c(C)c1 (racemic) [Example T200] | 70%
Cc1cc(C)c(C2=C(OC(=O)C(C)(C)C)[C@H]3[C@@H](C2=O)[C@@H]2CC[C@H]3O2)c(C)c1 (racemic) [Example P33] | 100%
CSc1ccc([C@@H]2C[C@@H]3O[C@H]2[C@H]2C(O)=C(c4c(C)cc(C)cc4C)C(=O)[C@H]23)cc1 [Example T66] | 40%
CCC(=O)OC1=C(c2c(CC)cc(C)cc2CC)C(=O)[C@@H]2[C@H]1[C@H]1CC[C@@H]2O1 (racemic) [Example P22] | 100%
Cc1cc(C)c(C2=C(OC(=O)C(C)C)[C@H]3[C@@H](C2=O)[C@@H]2CC[C@H]3O2)c(C)c1 [Example P10] | 100%
CCc1cc(C)cc(CC)c1C1=C(O)[C@H]2[C@@H](C1=O)[C@@H]1CC[C@@]2(CO)O1 [Example T14] | 100%
CC[C@H]1C[C@@H]2O[C@H]1[C@H]1C(O)=C(c3c(C)cc(C)cc3C)C(=O)[C@H]12 [Example T107] | 100%
CCc1cc(C)cc(CC)c1C1=C(O)[C@@H]2[C@@H]3O[C@@H](C[C@H]3c3ccccc3[N+](=O)[O-])[C@@H]2C1=O [Example T177] | 70%
CCc1cc(C)cc(CC)c1C1=C(O)[C@@H]2[C@@H]3O[C@@H](C[C@H]3c3ccc(F)cc3F)[C@@H]2C1=O [Example T163] | 90%
CCc1cc(C)cc(CC)c1C1=C(O)[C@@H]2[C@@H]3O[C@@H](C[C@H]3c3ccc(C#N)cc3)[C@@H]2C1=O [Example T160] | 40%
Cc1cc(C)c(C2=C(O)[C@@H]3[C@@H]4O[C@@H](C[C@H]4c4ncc(C(F)(F)F)cc4C(F)(F)F)[C@@H]3C2=O)c(C)c1 [Example T203] | 60%
CCc1cc(C)cc(CC)c1C1=C(O)[C@@H]2[C@@H]3O[C@@H](C[C@H]3c3ccc(SC)cc3)[C@@H]2C1=O [Example T162] | 90%
Cc1ccc([C@@H]2C[C@@H]3O[C@H]2[C@H]2C(O)=C(c4c(C)cc(C)cc4C)C(=O)[C@H]23)cc1 (racemic) [Example T71] | 0%
C=CCC(=O)OC1=C(c2c(CC)cc(C)cc2CC)C(=O)[C@@H]2[C@H]1[C@H]1CC[C@@H]2O1 [Example P23] | 100%
CCCCCCC(=O)OC1=C(c2c(CC)cc(C)cc2CC)C(=O)[C@@H]2[C@H]1[C@H]1CC[C@@H]2O1 (racemic) [Example P20] | 100%
CCc1cc(C)cc(CC)c1C1=C(O)[C@@H]2[C@@H]3O[C@@H](C[C@H]3c3ccc(Cl)cc3)[C@@H]2C1=O [Example T155] | 80%
CCc1cc(C)cc(CC)c1C1=C(O)[C@@H]2[C@@H]3O[C@@H](C[C@H]3c3ccc(C)cc3)[C@@H]2C1=O (racemic) [Example T180] | 70%
Cc1cc(C)c(C2=C(O)[C@@H]3[C@@H]4O[C@@H](C[C@H]4c4nc(C)cnc4C)[C@@H]3C2=O)c(C)c1 [Example T193] | 60%
COc1cc(C)c(C2=C(O)[C@H]3[C@@H](C2=O)[C@@H]2CC[C@H]3O2)c(C)c1 [Example T208] | 80%
COC[C@]12CC[C@H](O1)[C@@H]1C(=O)C(c3c(C)cc(C)cc3C)=C(OC(=O)C3CC3)[C@@H]12 (single isomer, unassigned) [Example P30] | 90%
CCc1cc(C)cc(CC)c1C1=C(O)[C@H]2[C@@H](C1=O)[C@@H]1C=C[C@@]2(CO)O1 (racemic) [Example T13] | 90%
CC[C@]12CC[C@H](O1)[C@@H]1C(=O)C(c3c(C)cc(C)cc3C)=C(O)[C@@H]12 [Example T52] | 100%
